Molecular target: UniProt:Q06124
Sequence (Q06124 whole entry): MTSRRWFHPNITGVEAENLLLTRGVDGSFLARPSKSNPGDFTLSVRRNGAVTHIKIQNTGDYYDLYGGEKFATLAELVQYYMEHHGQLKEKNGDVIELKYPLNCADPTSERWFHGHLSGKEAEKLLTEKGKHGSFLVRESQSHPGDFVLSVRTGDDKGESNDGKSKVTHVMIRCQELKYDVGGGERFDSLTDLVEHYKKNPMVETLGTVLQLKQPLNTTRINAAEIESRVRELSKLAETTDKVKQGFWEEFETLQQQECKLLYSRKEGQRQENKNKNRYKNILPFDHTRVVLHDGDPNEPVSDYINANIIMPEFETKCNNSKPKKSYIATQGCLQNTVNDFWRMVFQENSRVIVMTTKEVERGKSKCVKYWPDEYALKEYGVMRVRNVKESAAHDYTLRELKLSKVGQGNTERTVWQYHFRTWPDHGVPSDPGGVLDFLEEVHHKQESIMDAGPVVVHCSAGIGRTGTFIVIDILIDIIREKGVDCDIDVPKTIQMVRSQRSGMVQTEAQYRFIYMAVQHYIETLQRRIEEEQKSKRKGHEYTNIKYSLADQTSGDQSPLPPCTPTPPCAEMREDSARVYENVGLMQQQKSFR
Test: SHP2 allosteric inhibition assay (DiFMUP prompt fluorescence)
Assay type: biochemical
Conditions: 0.5 nM SHP2 activated with 0.5 μM peptide IRS1_pY1172(dPEG8)pY1222; substrate DiFMUP; 25° C.; read-out: IC50
EXPERIMENTAL_READOUT: pIC50
Please express pIC50 as -log10 of the molar concentration.

IN: // pIC50 lookup, key: CC1(N)CCN(c2cnc(Sc3ccc(Cl)cc3Cl)c(N)n2)CC1 [Example 6]
OUT: 6.68

IN: Any idea what its pIC50 is? The compound is CC1(N)CCN(c2cnc(Sc3cc(Cl)ccc3Cl)c(N)n2)CC1 [Example 5]
OUT: 5.97

IN: Find the recorded pIC50 belonging to CC1(N)CCN(c2nnc(Sc3ccccc3Cl)c(N)n2)CC1 [Example 15] and report it.
OUT: 6.58

IN: GET /values?readout=pIC50&item= NCC1(O)CCN(c2cnc(Sc3cccc(N)c3Cl)c(N)n2)CC1 [Example 47]
OUT: 6.42

IN: Reported pIC50, compound CCCC1(CN)CCN(c2cnc(Sc3ccnc(N)c3Cl)c(N)n2)CC1 [Example 51] : ____
OUT: 7.77

IN: pIC50 for Nc1nc(N2CCC(N)(CO)CC2)cnc1Sc1ccnc(N)c1Cl [Example 53] ?
OUT: 6.50

IN: Need pIC50 of CC1(CN)CCN(c2cnc(Sc3cc(N)nc(Cl)c3Cl)c(N)n2)CC1 [Example 55] , thanks.
OUT: 7.75

IN: Look up pIC50: C[C@@]1(N)CCN(c2cnc(Sc3cccc(Cl)c3Cl)c(N)n2)C[C@H]1O [Example 24]
OUT: 7.31

IN: Which pIC50 value is on record for CC1(CN)CCN(c2cnc(Sc3ccnc(Cl)c3Cl)c(N)n2)CC1 [Example 43] ?
OUT: 7.85

IN: Reported pIC50 for CC1(N)CCN(c2cnc(Sc3cc(O)ccc3Cl)c(N)n2)CC1 [Example 9] : what is it?
OUT: 6.51

IN: Would you mind telling me what pIC50 value was observed for CC1(N)CCN(c2cnc(Sc3cccnc3C(F)(F)F)c(N)n2)CC1 [Example 30] ?
OUT: 7.18

IN: Endpoint output: pIC50 of COc1ccc(Cl)c(Sc2ncc(N3CCC(C)(N)CC3)nc2N)c1 [Example 7] . Value?
OUT: 4.86

IN: Reported pIC50, compound CC1(N)CCN(c2cnc(Sc3cccc(NC(=O)c4ccc5ccccc5c4)c3Cl)c(N)n2)CC1 [Example 13] : ____
OUT: 6.59

IN: For the compound shown here, CC1(N)CCN(c2cnc(Sc3ccncc3Cl)c(N)n2)CC1 [Example 36] , give the reported pIC50.
OUT: 7.12

IN: For the compound CC1(N)CCN(c2cnc(Sc3cccc(N)c3C(F)(F)F)c(N)n2)CC1 [Example 21] , what pIC50 is on record?
OUT: 7.34

IN: Reported pIC50 for CC1(CN)CCN(c2nc(N)c(Sc3cccc(Cl)c3Cl)nc2C(N)=O)CC1 [Example 33] : what is it?
OUT: 7.72

IN: Fill blank: measured pIC50 of the compound CC1(CN)CCN(c2cnc(Sc3cccnc3Cl)c(N)n2)CC1 [Example 39] is ____.
OUT: 7.59

IN: // returns reported pIC50 for input CC1(N)CCN(c2cnc(Sc3ccnc(C(F)(F)F)c3Cl)c(N)n2)CC1 [Example 37]
OUT: 7.09

IN: What value of pIC50 has been recorded for this entry: CC1(N)CCN(c2cnc(Sc3ccc(Br)cc3Cl)c(N)n2)CC1 [Example 22]
OUT: 7.36

IN: Using the record for NCC1(c2cccnc2)CCN(c2cnc(Sc3cccc(Cl)c3Cl)c(N)n2)CC1 [Example 28] , report its pIC50.
OUT: 7.27

IN: Using the record for CC1(CN)CCN(c2nc(N)c(Sc3cccnc3C(F)(F)F)nc2C(N)=O)CC1 [Example 35] , report its pIC50.
OUT: 6.96

IN: Which pIC50 value belongs to CC1(N)CCN(c2cnc(Sc3ccc(F)cc3C(F)(F)F)c(N)n2)CC1 [Example 26] ?
OUT: 7.17

IN: Any idea what its pIC50 is? The compound is CC1(N)CCN(c2nnc(Sc3cccc(Cl)c3Cl)c(N)n2)CC1 [Example 14]
OUT: 6.84

IN: # get_value(readout='pIC50', item= CC1(CN)CCN(c2cnc(Sc3ccncc3F)c(N)n2)CC1 [Example 48] )
OUT: 6.75

IN: Record request: pIC50 value, item CC1(N)CCN(c2cnc(Sc3ccccc3C(F)(F)F)c(N)n2)CC1 [Example 4]
OUT: 7.23

IN: Give the measured pIC50 of CCC1(CN)CCN(c2cnc(Sc3ccnc(N)c3Cl)c(N)n2)CC1 [Example 50] .
OUT: 7.23
